# Test system: MCF7
# Assay protocol: NCI tumour cell line growth inhibition, 48 h
Calls of active or inactive are those of the source. Cut-off read from the data, not from the text of the source: active = GI50 up to about 1.1 µM and inactive = higher.
Returns: one label drawn from yes = active, no = inactive

Compound: O=C(O)Cc1cccc2c(=O)c3cccc([N+](=O)[O-])c3[nH]c12
Assigned class: no
--
Compound: CC1CC[C@@]2(OC1)OC1C[C@H]3[C@@H]4CC[C@H]5CC(OC6OC(CO)C(OC7OC(CO)C(O)C(O)C7OC7OC(CO)C(O)C(O)C7O)C(O)C6O)CCC5(C)[C@H]4CCC3(C)C1[C@@H]2C (stereo not given in full)
Assigned class: yes
--
Compound: CC(=O)c1cc(I)c(O)c2ncccc12
Assigned class: no

Challenge: Could you please tell me the result logged for COc1cc(/C=C/C(=O)Oc2ccc(NC(C)=O)cc2)ccc1C(=O)OCc1ccccc1 in this assay?
Response given: no

Challenge: Could you please tell me the result logged for O=c1[nH]cc(NCCCl)c(=O)[nH]1 in this assay?
Response given: no

Challenge: Could you please tell me the result logged for CCCCCCCCCCCCCCCCOCC(O)CO (stereo not given) in this assay?
Response given: no

---

# Test system: M14
# Assay protocol: NCI tumour cell line growth inhibition, 48 h
The source made the active and inactive calls. Cut-off read from the data, not from the text of the source: active = GI50 up to about 1.1 µM and inactive = higher.
Measured GI50 of individual entries

Consider the reported GI50 for these compounds:
Compound: Cc1ccc2c(c1)C1(OC(=O)c3ccccc31)c1ccc(F)cc1O2 (stereo not drawn)
GI50: 28.6 µM (inactive)
--
Compound: O=C(O)CCC1(CCC(=O)O)CCCCCCCCC(CCC(=O)O)(CCC(=O)O)C(=O)C1=O
GI50: > 100 µM (inactive)
--
Compound: O=S(=O)(OI(O)CC(F)(F)F)C(F)(F)F
GI50: > 100 µM (inactive)
--
Compound: OCCN1CCN2C=C(C3CCCC4N(CCO)CCN34)CCC21 (stereo not drawn)
GI50: 44.7 µM (inactive)
--
Compound: O=C1c2ccccc2N2OC3(N4CCCC4)CCCC3C12c1ccccc1 (stereo not drawn)
GI50: > 100 µM (inactive)

Challenge: Lab note: need GI50 for O=c1c2cc(I)ccc2nc(-c2cccs2)n1-c1ccc(O)cc1 on M14, anyone have it?
Response given: 15.8 µM (inactive)

Challenge: Lab note: need GI50 for C/C=C1\CN(C(=O)OC(C)(C)C)C1C(=O)OC(C)(C)C (stereo not drawn) on M14, anyone have it?
Response given: > 100 µM (inactive)

Challenge: Lab note: need GI50 for Cn1cc(C(=O)c2nccc3c2cnc2ccccc23)ccc1=O on M14, anyone have it?
Response given: > 100 µM (inactive)

---

# System: KM-20L2
# Assay protocol: NCI tumour cell line growth inhibition, 48 h
Active and inactive are the calls of the source. Rule as the data show it: active = GI50 up to about 1.1 µM and inactive = higher.
Returns: one label drawn from label 1 for active, label 0 for inactive

Recorded results for 2 compounds are shown here.
Compound: CN(CCO)c1nc(=O)c2c([nH]1)CCC2
Assigned class: label 0
--
Compound: COC1=CC(=O)c2ccccc2C1(CCC=C(C)C)C1=NC(C)(C)CO1 (configuration not stated)
Assigned class: label 0

Challenge: Could you please tell me the result logged for COc1cccc2c1C(=O)c1c(O)c3c(c(O)c1C2=O)C[C@@](O)(C(=O)CO)C[C@@H]3OC1CC(N)CC(C)O1 (some centres not stated) in this assay?
Response given: label 1

Challenge: Could you please tell me the result logged for O=C1c2ccccc2C(=O)N1C/C=N/NS(=O)(=O)c1ccc(F)cc1 in this assay?
Response given: label 0

Challenge: Could you please tell me the result logged for Nc1nc2c(ncn2C2OC(CO)C(O)C2O)c(=O)o1 (configuration not stated) in this assay?
Response given: label 0

Challenge: Could you please tell me the result logged for COc1ccc2c(c1)[n+]([O-])c(C(=O)C/C(=N/NC(=O)C[N+](C)(C)C)C(=O)Nc1cccc(C)c1C)c(C)[n+]2[O-] in this assay?
Response given: label 0

Challenge: Could you please tell me the result logged for CC(=O)O[C@H]1CC[C@@]2(C)C(=CC[C@@H]3C2CC[C@]2(C)C(=O)NC(=O)CC32)C1 (some centres not stated) in this assay?
Response given: label 0

---

# Tested on: U-251
# Assay protocol: NCI tumour cell line growth inhibition, 48 h
Activity calls are given as the source filed them. Cut-off read from the data, not from the text of the source: active = GI50 up to about 1.1 µM and inactive = higher.
Returns: one label drawn from active, inactive

Compound: CCc1ccccc1NC(=O)C(=O)C(C(=O)c1ccc(OC)cc1)c1ccc(OC)cc1 (centres undefined)
Measured target: U-251
Assigned class: inactive

Challenge: Could you please tell me the result logged for C=CCNC1=NC(=O)C(CC(=O)Nc2cccc(Cl)c2)S1 (centres undefined) in this assay?
Response given: inactive

Challenge: Could you please tell me the result logged for COc1cc2oc(=O)cc(C)c2c(OC)c1OC(C)=O in this assay?
Response given: inactive

---

# Tested on: MDA-N
# Assay protocol: NCI tumour cell line growth inhibition, 48 h
The source made the active and inactive calls. Cut-off read from the data, not from the text of the source: active = GI50 up to about 1.1 µM and inactive = higher.
Returns: one label drawn from T = active, F = inactive

Compound: COC(=O)c1c(O)ccc2[nH]c3c(O)c4ccccc4cc3c12
Assigned class: F
--
Compound: CCCCC/C=C\C=C1\C(=O)C=C[C@@H]1C/C=C\CCCC(=O)O
Assigned class: F
--
Compound: CN(C)CCOc1ccc2[nH]c(C(=O)N3CC(CCl)c4c3cc(N)c3ccccc43)cc2c1 (stereo unspecified)
Assigned class: T
--
Compound: O=c1c(-c2ccccc2F)coc2cc(F)ccc12
Assigned class: F
--
Compound: NCCCNC1(c2cc3ccccc3s2)CCCCC1
Assigned class: F

Field: next compound
Challenge: Could you please tell me the result logged for NC(=O)CC(/N=C1\C(=O)OC(C(O)CO)\C1=N/C(CC(N)=O)C(=O)O)C(=O)O (stereo unspecified) in this assay?
Response given: F

---

# System: COLO 205
# Assay protocol: NCI tumour cell line growth inhibition, 48 h
Active and inactive are the calls of the source. Cut-off read from the data, not from the text of the source: active = GI50 up to about 1.1 µM and inactive = higher.
Returns: one label drawn from 1 (active), -1 (inactive)

Molecule: O=C(Cc1csc2[n+]1C(=O)/C(=C/c1ccc(Cl)cc1)S2)Nc1ccccc1
Measured target: COLO 205
Assigned class: -1

Molecule: CN(CCN1C(=O)c2cccc3cccc(c23)C1=O)CCN1C(=O)c2cccc3cccc(c23)C1=O
Measured target: COLO 205
Assigned class: -1

Molecule: CC(=O)O[C@H]1CC[C@@]2(C)C(=CC[C@@H]3C2CC[C@]2(C)C(=O)NC(=O)CC32)C1 (stereo partly specified)
Measured target: COLO 205
Assigned class: -1

Molecule: O=NN(CCF)C(=O)NC1CCSCC1
Measured target: COLO 205
Assigned class: -1

Molecule: COc1ccc(NC(=O)NNS(=O)(=O)c2ccc(C)cc2)cc1
Measured target: COLO 205
Assigned class: -1

Challenge: Could you please tell me the result logged for CC(=O)Oc1c2oc3ccc(Cl)cc3c(=O)c2c(O)c2ccsc12 in this assay?
Response given: -1

Challenge: Could you please tell me the result logged for c1ccc2nc3c(nc2c1)sc1nc2ccccc2n13 in this assay?
Response given: -1

---

# Tested on: HL-60
# Assay protocol: NCI tumour cell line growth inhibition, 48 h
Active and inactive are the calls of the source. No stated cut-off is given here; in the data, active = GI50 up to about 1.1 µM and inactive = higher. Where a SMILES comes first, the peptide text is derived from it. [ ]: non-standard residue; d: D form. The star is where a group is joined. ξ: configuration not given here. ξF = NC(Cc1ccccc1)C(=O)O; Cbz = O=C(OCc1ccccc1)*; Aib = CC(C)(N)C(=O)O
Returns: one label drawn from active, inactive

Recorded results for 10 compounds are shown here.
Compound: Cc1c(Cl)nc(Cl)nc1Cl
Assigned class: inactive
--
Compound: O=C1c2ccccc2C2=Cc3ccccc3C(O)N12 (stereo not given)
Assigned class: inactive
--
Compound: COC(=O)Cc1cc(O)c(C/C=C(\C)CC/C=C(\C)C(O)C(=O)C=C(C)C)cc1O (stereo not given)
Assigned class: inactive
--
Compound: COC(=O)C(C)(C)NC(=O)C(Cc1ccccc1)NC(=O)C(C)(C)NC(=O)OCc1ccccc1 (stereo not given) (Cbz-[Aib]-[ξF]-[Aib]-OMe)
Assigned class: inactive
--
Compound: C1COCCN1.S=C(S)N1CCOCC1
Assigned class: inactive
--
Compound: C/C=C1/C[C@@H](C)[C@@](C)(O)C(=O)OCC2=CC[N+]3([O-])CC[C@@H](OC1=O)[C@@H]23 (stereo not given in full) [SENECIONINE N-OXIDE]
Assigned class: inactive
--
Compound: O=C1Nc2cccc(Cl)c2/C1=C\c1cccnc1
Assigned class: inactive
--
Compound: COc1ccn(CC(=O)c2cc3ccccc3[nH]2)c(=O)n1
Assigned class: inactive
--
Compound: COc1ccc(-c2[nH]c3ccccc3c2CCNS(=O)(=O)c2ccc(C)cc2)cc1
Assigned class: inactive
--
Compound: Fc1cccc(F)c1C1SCc2nc3cc(Cl)ccc3n21 (stereo not given)
Assigned class: inactive

Challenge: Could you please tell me the result logged for COC(=O)C1[C@@H](C(=O)OC)C(=O)O[C@H]1c1cc(OC)c(OC)c(OC)c1 (stereo not given in full) in this assay?
Response given: inactive

Challenge: Could you please tell me the result logged for CC1(C)CC23C4COC(=O)C2CCC1C3CC4=O (stereo not given) in this assay?
Response given: inactive

Challenge: Could you please tell me the result logged for CN(C)CCn1c(=O)c2ccc3c4c(nn3CCN(C)C)c3cc(O)ccc3n(c1=O)c24 in this assay?
Response given: active

Challenge: Could you please tell me the result logged for CN1C(=O)NC2(O)c3ccccc3C(=O)C12O (stereo not given) in this assay?
Response given: inactive

Challenge: Could you please tell me the result logged for CCCCc1ccc(-n2c3nc(=O)n(C)c(=O)c-3nc3ccccc32)cc1 in this assay?
Response given: inactive

Challenge: Could you please tell me the result logged for COC(=O)c1ccccc1/C=C1\Cc2c(C)cc(C)cc2C1=O in this assay?
Response given: inactive

Challenge: Could you please tell me the result logged for CC(C)C1=CC23CCC4C(C)(C(=O)O)CCCC4(C)C2CC1C1C(=O)N(c2ccc(Cc4ccc(N5C(=O)C6C7CC8C9(C)CCCC(C)(C(=O)O)C9CCC8(C=C7C(C)C)C6C5=O)cc4)cc2)C(=O)C13 (stereo not given) in this assay?
Response given: inactive

Challenge: Could you please tell me the result logged for Brc1sc(Br)c2c1[C@H](Br)C[C@@H]2Br in this assay?
Response given: inactive

Challenge: Could you please tell me the result logged for COc1ccc2cc(-c3ccc(OC)c(OC)c3)c(=O)oc2c1 in this assay?
Response given: inactive

Challenge: Could you please tell me the result logged for COC(=O)C(C(=O)C(=O)Nc1ccc([N+](=O)[O-])cc1)c1nc2ccc([N+](=O)[O-])cc2nc1O (stereo not given) in this assay?
Response given: inactive

Hello, the source for this data is ChEMBL document CHEMBL1201862, in case you need it.
